All figures here come from PubChem BioAssay (Tox21).

assaySummary: qHTS assay to test for compound auto fluorescence at 590 nm (red) in HEK293 cells (AID 720679)
assayConditions: red autofluorescence 540/590 nm; series mostly up to 91.3 µM
Calls of active or inactive are those of the source. The call rests on the fitted dose curve; in most records, active means well fitted curve in the direction sought with a large enough effect in the repeat runs; inconclusive means weak or mixed curves; inactive means flat fitted curve, though single readings scatter.
quantity: outcome

Consider the following illustrative entries.
{"columns": ["compound", "measurement"],
 "data": [
  ["C[C@]12CC[C@@H]3c4ccc(O)cc4CC[C@H]3[C@@H]1CC[C@@H]2O", "inactive"],
  ["CC(C)[C@@H]1CC[C@@H](C)CC1=O", "inactive"],
  ["CC[C@]12CCCN3CCc4c(n(c5ccccc45)[C@@](O)(C(=O)OC)C1)[C@@H]32", "inactive"],
  ["Cc1ccc(/C(=C\\CN2CCCC2)c2ccccn2)cc1", "inactive"],
  ["Cc1cccc(Nc2ccccc2C(=O)O)c1C", "inactive"]
]}

Entry Cc1ccc(S(=O)(=O)NCl)cc1 ; outcome = inactive

// sample CC1(C)NC(=O)N(c2ccc([N+](=O)[O-])c(C(F)(F)F)c2)C1=O , its outcome was inactive

# molecule c1ccc2c(c1)ccc1ncccc12 ; its outcome = inactive

Form: molecule = CCO[Si](CCCNC(N)=O)(OCC)OCC ; outcome = inactive

Value of measured outcome for the entry CC(C)(C)c1cccc(C(C)(C)C)c1O : inactive

Lab note: measured outcome of C=CCOC(=O)C(=C)C was inactive

The molecule listed as C=C[C@H]1CN2CC[C@H]1C[C@H]2[C@H](O)c1ccnc2ccc(OC)cc12 shows outcome equal to inactive

* * *

assaySummary: Human pregnane X receptor (PXR) small molecule agonists, qHTS cell viability counter screen (AID 1346977); further: nearly all actives have a fitted effect of over 50% in size
assayConditions: PXR-Luc HepG2 viability, CellTiter-Fluor, 24 h; series mostly up to 92.4 µM
Records with an inconclusive call do not appear. The source made the active and inactive calls. The call rests on the fitted dose curve; in most records, active means well fitted cell-killing curve with a large enough effect in the repeat runs; inconclusive means weak or mixed curves, or effect the other way; inactive means flat fitted curve, though single readings scatter.
Response enum: True for active, False for inactive

Please review the entries below; each comes with its answer.
{"columns": ["compound", "labelClass"],
 "data": [
  ["NCCS(=O)(=O)O", "False"],
  ["C=C[C@H]1CN2CC[C@H]1C[C@H]2[C@H](O)c1ccnc2ccc(OC)cc12", "True"],
  ["CC(C)=CCO", "False"]
]}

INPUT: Called result for CC(=O)Nc1ccc2c(c1)Cc1cc(NC(C)=O)ccc1-2
OUTPUT: False

INPUT: Please state the recorded outcome for this compound: c1ccc2cc3ccccc3cc2c1
OUTPUT: False

INPUT: Tell me the recorded outcome of this test for CC/C=C\C/C=C\C/C=C\CCCCCCCC(=O)O .
OUTPUT: False

INPUT: For CCCN1C=CN(C)C1 , which call appears in the assay record?
OUTPUT: False

INPUT: Record request — test call for C=C[C@@]1(C)CC(=O)[C@]2(O)[C@@]3(C)[C@@H](O)CCC(C)(C)[C@@H]3[C@H](O)[C@H](OC(C)=O)[C@@]2(C)O1
OUTPUT: False

INPUT: What was the test verdict on C=CCOC(=O)C(=C)C ?
OUTPUT: False

INPUT: Recorded call for IC(I)I ?
OUTPUT: False

* * *

assaySummary: Caspase-3/7 induction in CHO-K1 cells by small molecules, qHTS cell viability counter screen (AID 1346979); further: nearly all actives have a fitted effect of over 35% in size
assayConditions: CellTiter-Fluor fluorescence, 17 h; series mostly up to 92.4 µM
Records with an inconclusive call do not appear. The source made the active and inactive calls. Calls follow the shape of the dose curve; as a rule, active = well fitted cell-killing curve with a large enough effect in the repeat runs; inconclusive = weak or mixed curves, or effect the other way; inactive = no such curve, though single readings can be large or run the other way.
Assign a class; possible classes are active, inactive

Known results for compounds:
{"columns": ["compound", "labelClass"],
 "data": [
  ["Cc1ccc(C(C)(C)C)c(O)c1", "active"],
  ["OC[C@@H](O)[C@@H](O[C@@H]1O[C@H](CO)[C@H](O)[C@H](O)[C@H]1O)[C@H](O)[C@@H](O)CO", "inactive"],
  ["O=C1CCc2ccccc2O1", "inactive"],
  ["C[C@]12C=CC(=O)C=C1CC[C@H]1[C@@H]3C[C@@H](O)[C@](O)(C(=O)CO)[C@@]3(C)C[C@H](O)[C@@]12F", "inactive"],
  ["CC1=CC(C)(C)Nc2ccccc21", "inactive"]
]}

Consider the additional compound presented here.
INPUT: Recorded test outcome, item CCO[Si](CCCNC(N)=O)(OCC)OCC
OUTPUT: inactive
